biological target: Bifunctional epoxide hydrolase 2 (Homo sapiens, UniProt P34913); assay: Enzyme Assay: Test compounds (1.6 mM stock in DMSO) were diluted 3 fold in series in DMSO and 0.8 microliters per well were added into 384-well NBS microplates (Corning). Resorufin epoxide substrate (20 uM stock in DMSO) was diluted to 5 μM with Assay Buffer (25 mM bis-Tris-HCl, pH 7.0, 1 mM DTT and 0.2 mg/ml BSA) and 8 microliters per well were added to the microplates. Thirty two microliters per well of 3.6 nM soluble epoxide hydrolase in Assay Buffer was then added. The samples were incubated at room temperature and assay signals were monitored by reading excitation at 530 nm and emission fluorescence at 590 nm on a PlateVision (Zeiss) reader every 2 minutes for 8 times.
Sequence (P34913 whole entry): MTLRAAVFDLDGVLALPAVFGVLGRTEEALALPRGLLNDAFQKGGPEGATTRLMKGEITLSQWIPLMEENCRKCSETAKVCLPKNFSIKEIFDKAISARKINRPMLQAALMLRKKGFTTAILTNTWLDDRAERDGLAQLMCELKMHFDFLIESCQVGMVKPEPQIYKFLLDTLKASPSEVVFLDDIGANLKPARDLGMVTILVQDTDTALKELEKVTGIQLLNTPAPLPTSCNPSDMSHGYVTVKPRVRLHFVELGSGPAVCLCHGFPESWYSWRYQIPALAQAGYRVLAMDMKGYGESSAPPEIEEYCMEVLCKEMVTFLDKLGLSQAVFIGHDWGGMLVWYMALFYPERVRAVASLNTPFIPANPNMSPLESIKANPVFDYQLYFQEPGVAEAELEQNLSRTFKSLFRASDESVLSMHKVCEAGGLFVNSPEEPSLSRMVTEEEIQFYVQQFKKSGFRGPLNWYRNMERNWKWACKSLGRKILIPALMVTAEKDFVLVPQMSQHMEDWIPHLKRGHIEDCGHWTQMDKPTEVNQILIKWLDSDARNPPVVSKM
measurement.label: pIC50
Answers are plain numbers, as −log10 of the molar value.

Req: Please look up its pIC50: `O=C(NCc1ccc(Cl)cc1Cl)N1CC2(C1)CN(S(=O)(=O)c1ccccc1)C2`
Resp: 7.10
